I'd be grateful if you could share measured Plant response rating, Lambsquarters for these entries.
Tested on: lambsquarters (Chenopodium album)
protocol_text: Test C postemergence
Format: in vivo
applied_conditions: 31 g ai/ha, scale 0 to 100, 0 is no effect, 100 is complete control
Respond with the number and no other words.

Input line: Look up Plant response rating, Lambsquarters of O=c1cccc(Oc2ncc(Cl)cn2)n1-c1ccc(C(F)(F)F)cn1 and report it.
Output line: 65

Input line: Look up Plant response rating, Lambsquarters of O=c1cccc(Oc2ncc(Cl)cn2)n1-c1ccc(C(F)(F)F)cc1 and report it.
Output line: 75

Input line: Look up Plant response rating, Lambsquarters of O=c1cccc(Oc2ncc(Cl)cn2)n1-c1ccc(Cl)cc1 and report it.
Output line: 15

Input line: Look up Plant response rating, Lambsquarters of O=c1cccc(Oc2ncc(Cl)cn2)n1-c1ncc(Cl)cn1 and report it.
Output line: 35

Recorded values, source patent US9963442B2.
